run_description: Evaluation of conversion rate to active form in buffer solution (Experimental Example 1)
Format: physicochemical
test_conditions: pH5.0, 2 hr, 37° C., 25 umol/L in buffer solution
measurement_kind: Production rate of Alvocidib (%)

molecule	measurement_kind	meas_value
COCCN(CC1CCCCN1)C(=O)Oc1cc(O)c2c(=O)cc(-c3ccccc3Cl)oc2c1[C@H]1CCN(C)C[C@H]1O (some centres unmarked)	Production rate of Alvocidib	2.3
CN1CC[C@H](c2c(OC(=O)N(C)C[C@@H]3CCCCN3)cc(O)c3c(=O)cc(-c4ccccc4Cl)oc23)[C@H](O)C1	Production rate of Alvocidib	2.2
CN1CC[C@H](c2c(OC(=O)N(C)CC3CCCCN3)cc(O)c3c(=O)cc(-c4ccccc4Cl)oc23)[C@H](O)C1 (some centres unmarked)	Production rate of Alvocidib	2.0
CCNC(=O)Oc1cc(O)c2c(=O)cc(-c3ccccc3Cl)oc2c1[C@H]1CCN(C)C[C@H]1O [Comparative Example 1, reference compound]	Production rate of Alvocidib	82.1
CC(C)N(CC1CCCCN1)C(=O)Oc1cc(O)c2c(=O)cc(-c3ccccc3Cl)oc2c1[C@H]1CCN(C)C[C@H]1O (some centres unmarked)	Production rate of Alvocidib	3.1
CN1CC[C@H](c2c(OC(=O)N(Cc3ccccc3)CC3CCCCN3)cc(O)c3c(=O)cc(-c4ccccc4Cl)oc23)[C@H](O)C1 (some centres unmarked)	Production rate of Alvocidib	3.8
CCCN(C[C@@H]1CCCCN1)C(=O)Oc1cc(O)c2c(=O)cc(-c3ccccc3Cl)oc2c1[C@H]1CCN(C)C[C@H]1O	Production rate of Alvocidib	2.3
CCCN(CC1CCCCN1)C(=O)Oc1cc(O)c2c(=O)cc(-c3ccccc3Cl)oc2c1[C@H]1CCN(C)C[C@H]1O (some centres unmarked)	Production rate of Alvocidib	2.8
CCN(C[C@H]1CCCCN1)C(=O)Oc1cc(O)c2c(=O)cc(-c3ccccc3Cl)oc2c1[C@H]1CCN(C)C[C@H]1O	Production rate of Alvocidib	1.1
CN1CC[C@H](c2c(OC(=O)N(CCF)CC3CCCCN3)cc(O)c3c(=O)cc(-c4ccccc4Cl)oc23)[C@H](O)C1 (some centres unmarked)	Production rate of Alvocidib	3.3
CCCN(C[C@H]1CCCCN1)C(=O)Oc1cc(O)c2c(=O)cc(-c3ccccc3Cl)oc2c1[C@H]1CCN(C)C[C@H]1O	Production rate of Alvocidib	2.0

* * *

run_description: Evaluation of conversion rate to active form in buffer solution (Experimental Example 1)
Assay type: physicochemical
test_conditions: pH5.5, 3 hr, 37° C., 25 umol/L in buffer solution
Property: Production rate of Alvocidib; scope: individual molecules

molecule	unit_text	Production rate of Alvocidib
CCCN(C[C@@H]1CCCCN1)C(=O)Oc1cc(O)c2c(=O)cc(-c3ccccc3Cl)oc2c1[C@H]1CCN(C)C[C@H]1O	%	5.7
CC(C)N(CC1CCCCN1)C(=O)Oc1cc(O)c2c(=O)cc(-c3ccccc3Cl)oc2c1[C@H]1CCN(C)C[C@H]1O (stereo partly drawn)	%	7.2
CN1CC[C@H](c2c(OC(=O)N(Cc3ccccc3)CC3CCCCN3)cc(O)c3c(=O)cc(-c4ccccc4Cl)oc23)[C@H](O)C1 (stereo partly drawn)	%	9.5

* * *

Property: Residual rate; scope: individual molecules
run_description: Evaluation of conversion rate to active form in buffer solution (Experimental Example 1)
Assay type: physicochemical
test_conditions: pH5.5, 0 hr, 37° C., 25 umol/L in buffer solution
measurement_kind: Residual rate (%)

molecule	unit_text	meas_value
CCN(C[C@@H]1CCCCN1)C(=O)Oc1cc(O)c2c(=O)cc(-c3ccccc3Cl)oc2c1[C@H]1CCN(C)C[C@H]1O [Example 1, ditrifluoroacetate]	%	98.8
CN1CC[C@H](c2c(OC(=O)N(C)C[C@H]3CCCCN3)cc(O)c3c(=O)cc(-c4ccccc4Cl)oc23)[C@H](O)C1	%	99.2
CN1CC[C@H](c2c(OC(=O)N(CCCC(F)(F)F)CC3CCCCN3)cc(O)c3c(=O)cc(-c4ccccc4Cl)oc23)[C@H](O)C1 (stereo partly shown)	%	57.5
CCNC(=O)Oc1cc(O)c2c(=O)cc(-c3ccccc3Cl)oc2c1[C@H]1CCN(C)C[C@H]1O [Comparative Example 1, reference compound]	%	91.2
CCN(CCC1CCCCN1)C(=O)Oc1cc(O)c2c(=O)cc(-c3ccccc3Cl)oc2c1[C@H]1CCN(C)C[C@H]1O (stereo partly shown)	%	84.9
CCN(C[C@H]1CCCCN1)C(=O)Oc1cc(O)c2c(=O)cc(-c3ccccc3Cl)oc2c1[C@H]1CCN(C)C[C@H]1O	%	95.8
CN1CC[C@H](c2c(OC(=O)N(C)C[C@@H]3CCCCN3)cc(O)c3c(=O)cc(-c4ccccc4Cl)oc23)[C@H](O)C1	%	99.7
CN1CC[C@H](c2c(OC(=O)N(CCC(F)(F)F)CC3CCCCN3)cc(O)c3c(=O)cc(-c4ccccc4Cl)oc23)[C@H](O)C1 (stereo partly shown)	%	82.7
COCCN(CC1CCCCN1)C(=O)Oc1cc(O)c2c(=O)cc(-c3ccccc3Cl)oc2c1[C@H]1CCN(C)C[C@H]1O (stereo partly shown)	%	80.6
CCCN(C[C@H]1CCCCN1)C(=O)Oc1cc(O)c2c(=O)cc(-c3ccccc3Cl)oc2c1[C@H]1CCN(C)C[C@H]1O	%	99.5
CCCN(C[C@@H]1CCCCN1)C(=O)Oc1cc(O)c2c(=O)cc(-c3ccccc3Cl)oc2c1[C@H]1CCN(C)C[C@H]1O	%	98.3
CN1CC[C@H](c2c(OC(=O)N(CCF)CC3CCCCN3)cc(O)c3c(=O)cc(-c4ccccc4Cl)oc23)[C@H](O)C1 (stereo partly shown)	%	83.6
CN1CC[C@H](c2c(OC(=O)N(Cc3ccccc3)CC3CCCCN3)cc(O)c3c(=O)cc(-c4ccccc4Cl)oc23)[C@H](O)C1 (stereo partly shown)	%	95.6

* * *

run_description: Evaluation of conversion rate to active form in buffer solution (Experimental Example 1)
Assay type: physicochemical
test_conditions: pH6.5, 3 hr, 37° C., 25 umol/L in buffer solution
Experimental: For Examples 1 to 16 and Comparative Examples 1 to 14, the attrition rate of the test compound and the conversion rate of the test compound to Alvocidib in a buffer solution were calculated by the following method. Examples 1 to 16 and Comparative Examples 1 to 14 were each left in buffer solutions adjusted to pH 5.0, 5.5, 6.0, 6.5, 7.0 and 7.4, respectively, at a concentration of 25 umol/L at 37° C. […]
Structures can show the parent of a compound that is named as a salt.
Please mark Fulfilled if the recorded Production rate of Alvocidib is equal to or greater than 50%, and Not fulfilled if it falls below.

compound	class_label
CN1CC[C@H](c2c(OC(=O)N(Cc3ccccc3)CC3CCCCN3)cc(O)c3c(=O)cc(-c4ccccc4Cl)oc23)[C@H](O)C1 (stereo partly shown) [Example 15]	Fulfilled
CCN(C[C@H]1CCCCN1)C(=O)Oc1cc(O)c2c(=O)cc(-c3ccccc3Cl)oc2c1[C@H]1CCN(C)C[C@H]1O [Example 2]	Not fulfilled
CN1CC[C@H](c2c(OC(=O)N(CCC(F)(F)F)CC3CCCCN3)cc(O)c3c(=O)cc(-c4ccccc4Cl)oc23)[C@H](O)C1 (stereo partly shown) [Example 13]	Fulfilled
CCN(C[C@@H]1CCCCN1)C(=O)Oc1cc(O)c2c(=O)cc(-c3ccccc3Cl)oc2c1[C@H]1CCN(C)C[C@H]1O [Example 1, ditrifluoroacetate]	Not fulfilled
CCN(CC1CCCCN1)C(=O)Oc1cc(O)c2c(=O)cc(-c3ccccc3Cl)oc2c1[C@H]1CCN(C)C[C@H]1O (stereo partly shown) [Example 7, dihydrochloride]	Not fulfilled
CN1CC[C@H](c2c(OC(=O)N(C)C[C@@H]3CCCCN3)cc(O)c3c(=O)cc(-c4ccccc4Cl)oc23)[C@H](O)C1 [Example 3]	Not fulfilled
CCNC(=O)Oc1cc(O)c2c(=O)cc(-c3ccccc3Cl)oc2c1[C@H]1CCN(C)C[C@H]1O [Comparative Example 1, reference compound]	Fulfilled
CN1CC[C@H](c2c(OC(=O)N(C)C[C@H]3CCCCN3)cc(O)c3c(=O)cc(-c4ccccc4Cl)oc23)[C@H](O)C1 [Example 4]	Not fulfilled
COCCN(CC1CCCCN1)C(=O)Oc1cc(O)c2c(=O)cc(-c3ccccc3Cl)oc2c1[C@H]1CCN(C)C[C@H]1O (stereo partly shown) [Example 12]	Fulfilled
CCCN(C[C@@H]1CCCCN1)C(=O)Oc1cc(O)c2c(=O)cc(-c3ccccc3Cl)oc2c1[C@H]1CCN(C)C[C@H]1O [Example 5]	Not fulfilled
CC(C)N(CC1CCCCN1)C(=O)Oc1cc(O)c2c(=O)cc(-c3ccccc3Cl)oc2c1[C@H]1CCN(C)C[C@H]1O (stereo partly shown) [Example 10]	Not fulfilled

* * *

Property: Production rate of Alvocidib; scope: individual molecules
run_description: Evaluation of conversion rate to active form in buffer solution (Experimental Example 1)
Assay type: physicochemical
test_conditions: pH7.4, 3 hr, 37° C., 25 umol/L in buffer solution

molecule	Production rate of Alvocidib [%]
CN1CC[C@H](c2c(OC(=O)N(CCCC(F)(F)F)CC3CCCCN3)cc(O)c3c(=O)cc(-c4ccccc4Cl)oc23)[C@H](O)C1 (stereo partly drawn)	75.7
CN1CC[C@H](c2c(OC(=O)N(Cc3ccccc3)CC3CCCCN3)cc(O)c3c(=O)cc(-c4ccccc4Cl)oc23)[C@H](O)C1 (stereo partly drawn)	77.2
CN1CC[C@H](c2c(OC(=O)N(CCC(F)(F)F)CC3CCCCN3)cc(O)c3c(=O)cc(-c4ccccc4Cl)oc23)[C@H](O)C1 (stereo partly drawn)	66.1
CCCN(C[C@H]1CCCCN1)C(=O)Oc1cc(O)c2c(=O)cc(-c3ccccc3Cl)oc2c1[C@H]1CCN(C)C[C@H]1O	75.3
CCN(C[C@H]1CCCCN1)C(=O)Oc1cc(O)c2c(=O)cc(-c3ccccc3Cl)oc2c1[C@H]1CCN(C)C[C@H]1O	67.6
CN1CC[C@H](c2c(OC(=O)N(CCF)CC3CCCCN3)cc(O)c3c(=O)cc(-c4ccccc4Cl)oc23)[C@H](O)C1 (stereo partly drawn)	67.3
